# Assay Details: soluble fraction after stress (log2 fold change); higher = more stays soluble; pooled small domains, quantitative proteomics
# Setup Conditions: stress: pH 4
Binary call on soluble fraction (log2): T from -0.4 upward, F beneath that.

* HMEQKISVPALVGRDIEEILADTEVTGNFTIKEADKRVASNRPVGEVLEQDPGTGESAVKGTIITVTVSAG | T

Ask: Identify whether the reported soluble fraction (log2) of the following sequence is -0.4 or greater: HMGPRVSAGPGRHRVQPGDTLDDIAARYRVSSRDLMLVNGLRNANHVEAGQTLKLPSNAVIA
Reply: T

----------
# Assay Details: soluble fraction after stress (log2 fold change); higher = more stays soluble; pooled small domains, quantitative proteomics
# Setup Conditions: stress: pH 4
Mark Criterion not met for soluble fraction (log2) values under -0.5, and Criterion met for everything at or above.

- HMFDFNNLSSLSDVELSVYRFVVNNPEKVAYMRVRDIAQKTHVANSSVMRFVHKIGFASFPEFKAYLKNIN: Criterion met
- HMAQVRSTVERRENGTYTVELNLNDDVDNVMRLQLMVATKEMAEDLAQRFQKNPEQVYSQLVTALYG: Criterion not met
- HMKDRNISSSVLEILSKDPDHTYNYKQIAALLGVKDAFIRKRIVTLLAQLAKDGHLDEISRGKYQIK: Criterion met
- HMLPISGDDRDALDMAALILKQYDSLPILKEFANVVTKLQTVLDGVVSNSIEARRQMIQFEE: Criterion met
- HMLSTNDYNENKNKLIKDFEIKFIIKHLKLNKGNVAATARSINFHPVSLRQKIAKLGIDVDEVMAG: Criterion met

Ask: Hi, just wondering whether HMTGIRVYPNPTSSELRFSVATDAALYDATGARLRVVRGSDMMDIRDLASGTYYVRFADGSTQSVVVT shows soluble fraction (log2) of -0.5 or higher.
Reply: Criterion met

Ask: HMSIGKEATPDDIVPNIRVYHATFGYGNVIKTDGVSHDKKAVVNFDSVGEKTLLLKFAKLILPY ?
Reply: Criterion not met

Ask: Okay, and HMNIAAVIGQTGVLQDDLKAGEQGTVKADNKLWTAVLAEGEEAVKKEERVDIVAVEGVKLIVRRNI ?
Reply: Criterion not met

----------
Field: soluble fraction (log2). Provide a value for each of the sequences that follow.
# Assay Details: soluble fraction after stress (log2 fold change); higher = more stays soluble; pooled small domains, quantitative proteomics
# Setup Conditions: stress: pH 4
Numbers only.

Hey, quick one: what's soluble fraction (log2) for each of these?
1. HMQISDSGELEKIVLQVIEENPKPAEQVRSGNEKAIGALVGGVMKATQGRADGGEVNRLLRQHLGL
2. HMRREIRLTVTEEIVLMKFLLTQIPYKNRDNFKTLLNDRQIRVNGSVVTWYNHPLKPGQEVTIGWFKM
3. HMFVEEGSLKKITFDTYEFNITDNLKSLRVTYQGLLPNLFREGQGVVIEGILLEQNYIQANTVF
4. HMSSSYTEMQLDKLKKLLEKETLLSSEKSELKSLIHDFDKIPEVVSPLIVGEYLRLKNKYIAVINSLE

Reply:
0.23
-0.628
-0.328
-0.322

# map each sequence to its soluble fraction (log2)
1. HMIKLIKKDTNISELKMSKMPWDVMLYGKPYQVVSIKGYVHTIGGRRGENDLWMYPRDESPTYENLIEFQ
2. HMTVDTSELEEMIDDLIKEHPNEWERYSSGEKKVQGFFVGQVMKATSGQADGKAINQILSKRVKS
3. HMFLSSEERRERIIEVLRQQDEVTVVELSHRLGVSEVTTRKDLQQLEEQGYLTRVRGGAVVSGRGQL
4. HMISFHEYLTQLLDEKGLTKAQVITDSNIQKNYGYQIFDGSKTPSRDKVIAIALAMQLTLDEANRLLHLSN

Reply:
1. 0.279
2. 0.000391
3. -0.458
4. -0.618

----------
For each record, write down the corresponding soluble fraction (log2).
# Assay Details: soluble fraction after stress (log2 fold change); higher = more stays soluble; pooled small domains, quantitative proteomics
# Setup Conditions: stress: pH 4
Numbers only.

* HMVPADVQHLRDIVDTMTEKQQLVYKLHVLEGYTFTEIAKLMGTSIPNVKKHYDKAILFIKNNF | -0.165
* HMIQTKKVTFTVEPTVNFEKINISGIEFKINSGSSITAIYEKNSHNFDEVLDFLKQKGVKILDIVTED | -0.824
* HMIFTPNGDRVNDVFEIEMGVKLEFQIIILNQQNQTVFKSADPDFKWDGTMLNGEPAPSGTYLYYFSAKD | 0.22
* HMLPLHFIEIVSLKKIDTLTKRKELINYAFSKNEKTYIYKLAFKKKSELDNLYKEINLFNEIINIDIRHS | -0.943
* HMTVNLPPKQKAAILLMSLPPEVSAQLFKELGPDEVHAITLEISKLPPISPDVRAQVIDEFLHSS | -0.226
* HMKIPIIYQPLKNAKRIKIYIPYELKELRTIFKKINTTFWHPNQKLWSIIYTQENVALIKNLFGKNYKIVN | -0.0514

Next sequence, soluble fraction (log2) to be filled in.
Ask: If you can, please state the reported soluble fraction (log2) value of HMEWVVVPDVRRQLLPEAQRRVNKARLRLEVAGGWPAEPLLAMVVDQKPGPETRVPLNSIVVVVVRNLP .
Reply: -0.0893

----------
# Assay Details: soluble fraction after stress (log2 fold change); higher = more stays soluble; pooled small domains, quantitative proteomics
# Setup Conditions: stress: pH 4
Value Kind: soluble fraction (log2)
Answers are plain numbers.

Sample records with soluble fraction (log2):
• HMRAGHDFEALKHIESSLDKHLTDEGIKIKSEKRGAIVARWYQSHVEGREVTDDDVHTWIELFF = -2.2
• HMLTGESDNVEKSINKLGTENLALADQTNMGFKGTFINSGHGMAIVVKTGMQTELGKIASMIQIA = 0.22
• HMHLDIGQLVQRILADIQVGKLADGQRKLPAEPVLMERYQVTRYTLRQALKQLSNMGYTYQMHGIGTFVRQ = -0.211

Note: attention shifts to another entry.
Ask: Entry HMPPFDDILAEYYEPLYRHVRRMVVSHDDAKDVMQEAMLRIFQGLDGLKDPSAVRTWVWRIATNEALRH : reported soluble fraction (log2) = ?
Reply: -1.76

----------
# Assay Details: soluble fraction after stress (log2 fold change); higher = more stays soluble; pooled small domains, quantitative proteomics
# Setup Conditions: stress: pH 4
Value Kind: soluble fraction (log2)
Answers are plain numbers.

Consider the reported soluble fraction (log2) for these sequences:
* HMADYSGYLGKKGKVIAPLRPAGTALIDGERVDVVSFGDYIDKDSEIEVVKIEGSKLLVKKY | 0.128
* HMSETQDQTTIEIEDMITVGTLAERLSIPVSTLIGELMKNGVMATVNEKIDFDTAQIIVGELKLPIELSKK | -0.269

Give soluble fraction (log2) for each listed item.
1. HMTENIPPVKIEEMRQKWQDIVLLHGVTSGRKIKSGQATYIWLYRNDQNWLLTFNSRHLSQPQV
2. HMHLKDEHGLTPKQRAFADEYVITLNATVSYKKIYSVKRDSVASTNGSRLLGNANVKAYIDKRLEE
3. HMKDYKTIFQELIQKKHKTSPIYKSYEYNDMFKAEVYVNDKSFADGIGKSKKEAETDAAKKALEKIEMA
4. HMGSGQIRYITENTVRVVYGTSKENEFVFQDGKPYPKDTPYHIHYTRNLEEYFMSGVEHDKNSKIILKVD
5. HMWDRFGELDSAEEINRIAAAELREGDIDALKVLAEENGLDKDDVEDYIDRLIDELTTPELAAIGKLDV

Reply:
1: -0.263; 2: 0.172; 3: 0.0809; 4: -0.792; 5: -0.0336

----------
# Assay Details: soluble fraction after stress (log2 fold change); higher = more stays soluble; pooled small domains, quantitative proteomics
# Setup Conditions: stress: pH 4
Give measured soluble fraction (log2) for each item. Keep answers brief.
Answers are plain numbers.

• HMDTSISHLVGRTGEAVTDLRPAGTVMIDGELYDARATEGFIEKGEIVKAIKYQYGQLNVRRVSK = 0.149

Look at each sequence and report its soluble fraction (log2).
1. HMTPNATWQDDAQSLLRDLIQHQPVLIQISAAKRLRDQAEQISRITGGDTVTRDHVEAAGHALGMGVT
2. HMGFAPEAAREEVAQLIGQRGRAVTVLRPSGQVEIAGRRFEATVEVGAVDAGDTIVVRGQTAFALLVEKAD
3. HMQNMVYVATKDIPAGGVIDQDSVSKTAISTSIDTSLYITDDDLGKIAVVNISQGQSVFSNMVGT
4. HMENEFEAYSDGSSIQLNDPSKATYVVFDRQGRLLHLFQNHSLSSLSIERKNQILIITRETADGVSVKKIV
5. HMVAPKTEEQQKMFLESIVTKRQAETLIEKYPNIVQDIIDGTDNVDLANLKGIGEHTYNLIKEKVLSNY

Reply:
-0.39
0.0812
-0.585
-0.167
-0.159

Please give soluble fraction (log2), item by item, for the list that follows.
1. HMALPGESVYVSILQSGSNRDQGVGYLDDGTMVVVDGAIKDIGKSIEVVINKSHQTVAGKMLFAKKVA
2. HMWMTAQDFRNSSLPWSATTSYNEGQSVRVVDGSNTYYYIAIVKTQPGQSPTTHPTSWREVDA

Reply:
1: -0.144; 2: 0.311

# credit: the domain aggregation screens of Martell et al. (2025)
